# System: HS 578T breast
# Assay Procedure: NCI-60 one-dose screen, 48 h (100 = growth as untreated, 0 = no growth, -100 = all killed)
# Condition Info: 10 µM unless noted
# Protocol: Growth inhibition of the HS 578T human tumor cell line is measured as a screen for anti-cancer activity. Cells are grown in 96 well plates and exposed to the test compound for 48 hours. Compounds are tested at a single concentration, which is 10^-5 M for most compounds. The reported endpoint is percent growth (GI% or GIPRCNT), where numbers from 0 - 100% represent growth inhibition, and numbers from -100% - 0 represent cell death. For example, a value of 40 represents 60% growth inhibition. […]
This is part of a sample that, as a whole, favours compounds with a hit. Of some 83,000 tested, about 20% had one in any assay. Calls of active or inactive are those of the source. How the source made its calls: active means growth percent below 10; inactive means the rest.
Recorded measurements of growth, one per entry
Quantity: growth

Compound: COc1ccc(C(O)c2cc3c(N)c(C(=O)Nc4cccc(Br)c4)sc3nc2C)cc1 (centres undefined)
Assay System: HS 578T breast
Endpoint Value: -6% (active)

Compound: COc1cc2c(cc1OCCCN1CCN(CCCOc3cc4c(cc3OC)C(=O)N3CCC[C@H]3C=N4)CC1)C=CC(C)(C)O2
Assay System: HS 578T breast
Endpoint Value: -77.9% (active)

Compound: C=CCn1c(SCC(=O)Nc2ccc(C(=O)/C=C/c3ccc(Cl)cc3)cc2)nnc1-c1ccc(Br)cc1
Assay System: HS 578T breast
Endpoint Value: 71.9% (inactive)

Compound: O=C1C(Cl)=C(NCCCCCCNC2=C(Cl)C(=O)c3ccccc3C2=O)C(=O)c2ccccc21
Assay System: HS 578T breast
Endpoint Value: 89.3% (inactive)

Compound: CCOC(=O)C/C(=N\Nc1cc(=O)[nH]c2ccc(Br)cc12)C(=O)OCC
Assay System: HS 578T breast
Endpoint Value: 92% (inactive)

Compound: C#COc1cccc(Nc2c(C#N)cnc3ncc(NC(=O)CCl)cc23)c1
Assay System: HS 578T breast
Endpoint Value: 66.8% [6.25 µM] (inactive)

Compound: COc1ccc(-c2cc(-c3cccnc3)nc3sc4c(=O)[nH]c(-c5ccc(Cl)cc5)nc4c23)cc1OC
Assay System: HS 578T breast
Endpoint Value: 92% (inactive)

Compound: CCC(=C(c1ccc(OCCN2CCCCC2)cc1)c1ccc(OCCN2CCCCC2)cc1)c1ccc(Cl)cc1
Assay System: HS 578T breast
Endpoint Value: -77.1% (active)

Compound: CCOC(=O)Cc1cnc(N/N=C(\C)c2cc3ccccc3o2)s1
Assay System: HS 578T breast
Endpoint Value: 100% (inactive)
